Assay: Partition coefficient, phosphate buffer/n-octanol
Format: physicochemical
Settings: n-octanol/50 mm phosphate buffer; 50 mM phosphate buffer (pH 7.4, μ=0.15)/n-octanol
QUANTITY: logD
Just the number, please.

>  <MOLECULE>
CN1CCN(c2c(F)c(N)c3c(=O)c(C(=O)O)cn(C4COC4)c3c2F)CC1

>  <logD>
-0.333

$$$$

Now look at this entry.
Req: Return logD for the following molecule: C[C@H]1CN(c2c(F)c(N)c3c(=O)c(C(=O)O)cn(C4COC4)c3c2F)C[C@H]1N (single isomer, unassigned)
Resp: -0.529

###

Readings of MIC for the listed molecules
Test system: P. aeruginosa (IFO 3445)
Test: Minimum inhibitory concentration, standard method of the Japan Society of Chemotherapy
Type: cell-based
Details: Pseudomonas aeruginosa, IFO3445
Give the number; µg/mL is assumed, so skip it.

>  <MOLECULE>
CN1CCN(c2cc3c(cc2F)c(=O)c(C(=O)O)cn3C2COC2)CC1 [Compound 35]

>  <MIC [µg/mL]>
3.13

$$$$
>  <MOLECULE>
CCNC1CCN(c2c(F)cc3c(=O)c(C(=O)O)cn(C4COC4)c3c2F)C1 (stereo not shown) [Compound 45]

>  <MIC [µg/mL]>
3.13

$$$$
>  <MOLECULE>
O=C(O)c1cn(C2COC2)c2c(F)c(N3CCSCC3)c(F)cc2c1=O [Compound 7]

>  <MIC [µg/mL]>
3.13

$$$$
>  <MOLECULE>
CNCC1CCN(c2c(F)c(N)c3c(=O)c(C(=O)O)cn(C4COC4)c3c2F)C1 (stereo not shown) [Compound 52]

>  <MIC [µg/mL]>
3.13

$$$$
>  <MOLECULE>
NCC1CCN(c2c(F)cc3c(=O)c(C(=O)O)cn(C4COC4)c3c2F)C1 (stereo not shown) [Compound 20]

>  <MIC [µg/mL]>
3.13

$$$$
>  <MOLECULE>
CNC1CCN(c2c(F)c(N)c3c(=O)c(C(=O)O)cn(C4COC4)c3c2F)C1 (stereo not shown) [Compound 50]

>  <MIC [µg/mL]>
1.56

$$$$
>  <MOLECULE>
Nc1c(F)c(N2CCC(O)C2)c(F)c2c1c(=O)c(C(=O)O)cn2C1COC1 (stereo not shown) [Compound 59]

>  <MIC [µg/mL]>
3.13

$$$$
>  <MOLECULE>
CN[C@@H]1CN(c2c(F)cc3c(=O)c(C(=O)O)cn(C4COC4)c3c2F)C[C@@H]1C (relative stereo) [Compound 93]

>  <MIC [µg/mL]>
3.13

$$$$
>  <MOLECULE>
CCNC1CCN(c2nc3c(cc2F)c(=O)c(C(=O)O)cn3C2COC2)C1 (stereo not shown) [Compound 69]

>  <MIC [µg/mL]>
1.56

$$$$
>  <MOLECULE>
CN(C)C1CCN(c2cc3c(cc2F)c(=O)c(C(=O)O)cn3C2COC2)C1 (stereo not shown) [Compound 39]

>  <MIC [µg/mL]>
6.25

$$$$

Req: Return MIC for the following molecule: Cl.N=CN1CCN(c2c(F)c(N)c3c(=O)c(C(=O)O)cn(C4COC4)c3c2F)CC1 [Compound 108]
Resp: 3.13

Req: Return MIC for the following molecule: CNCC1CCN(c2nc3c(cc2F)c(=O)c(C(=O)O)cn3C2COC2)C1 (stereo not shown) [Compound 70]
Resp: 6.25

Req: Return MIC for the following molecule: O=C(O)c1cn(C2COC2)c2c(F)c(N3CCOCC3)c(F)cc2c1=O [Compound 6]
Resp: 6.25

Req: Return MIC for the following molecule: C[C@@H]1CN(c2c(F)c(N)c3c(=O)c(C(=O)O)cn(C4COC4)c3c2F)C[C@H]1N (relative stereo) [Compound 101]
Resp: 0.78

Req: Return MIC for the following molecule: N=CNC1CCN(c2c(F)c(N)c3c(=O)c(C(=O)O)cn(C4COC4)c3c2F)C1 (stereo not shown) [Compound 110]
Resp: 6.25

Req: Return MIC for the following molecule: C[C@H]1CN(c2c(F)cc3c(=O)c(C(=O)O)cn(C4COC4)c3c2F)C[C@H]1N (relative stereo) [Compound 102]
Resp: 0.78

Req: Return MIC for the following molecule: COc1c(N2CCC(N)C2)c(F)cc2c(=O)c(C(=O)O)cn(C3COC3)c12 (stereo not shown) [Compound 76]
Resp: 1.56

Req: Return MIC for the following molecule: CCNC1CCN(c2c(F)c(N)c3c(=O)c(C(=O)O)cn(C4COC4)c3c2F)C1 (stereo not shown) [Compound 51]
Resp: 3.13
